System: FGFR3 (UniProt P22607)
Sequence (P22607 whole entry, looked up): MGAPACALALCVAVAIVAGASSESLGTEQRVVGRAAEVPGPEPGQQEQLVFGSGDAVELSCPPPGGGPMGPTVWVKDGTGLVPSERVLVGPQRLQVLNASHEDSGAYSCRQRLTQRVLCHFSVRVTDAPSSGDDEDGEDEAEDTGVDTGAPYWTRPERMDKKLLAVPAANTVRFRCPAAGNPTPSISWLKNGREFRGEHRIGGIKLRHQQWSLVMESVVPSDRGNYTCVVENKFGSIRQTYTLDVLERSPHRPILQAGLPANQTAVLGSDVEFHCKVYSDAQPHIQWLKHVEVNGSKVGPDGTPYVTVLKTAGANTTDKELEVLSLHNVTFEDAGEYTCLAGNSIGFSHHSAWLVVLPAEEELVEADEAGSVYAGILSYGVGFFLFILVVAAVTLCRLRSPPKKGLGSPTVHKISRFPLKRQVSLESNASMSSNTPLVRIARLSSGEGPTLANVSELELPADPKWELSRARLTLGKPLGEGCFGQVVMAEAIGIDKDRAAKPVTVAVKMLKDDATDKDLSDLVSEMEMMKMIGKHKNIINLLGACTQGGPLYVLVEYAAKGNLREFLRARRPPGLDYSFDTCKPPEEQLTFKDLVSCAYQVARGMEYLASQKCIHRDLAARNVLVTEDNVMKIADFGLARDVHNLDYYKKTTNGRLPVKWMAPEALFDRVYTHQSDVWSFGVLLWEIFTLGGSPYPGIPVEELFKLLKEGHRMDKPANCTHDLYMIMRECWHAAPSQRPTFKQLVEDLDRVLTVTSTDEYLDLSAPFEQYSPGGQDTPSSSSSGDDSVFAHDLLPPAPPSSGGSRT
Method description: phosphorylation enrichment, bacterial display (enrichment ratio); higher = better substrate or ligand; peptides without Tyr show the background
Item-by-item account of phosphorylation enrichment

Consider the reported phosphorylation enrichment for these sequences:
NCLRQYVAGRF [CRB1_Y711_E710Q]: 0.467
RLSPEYKQNEI [GJB1_Y243]: 0.446
TSPKSCPSQKH [CAP2_Y316_Y316C]: 0.521
KRYRIYHLAIS [BRCA2_Y3009_T3013I]: 0.464
SVNIRYLLFPS [SERAC1_Y548]: 0.929
VVVTKYCKEEL [ATP7B_Y1078_A1074V]: 0.824

(Q) Give the reported phosphorylation enrichment for this sequence. PTFEHYANSTQ [SLC12A3_Y70_YF]
(A) 0.988

(Q) Return value of phosphorylation enrichment for input RRDRDYTNLPS [CSF1R_Y923_E920D] , no commentary.
(A) 0.696

(Q) Indicate its recorded phosphorylation enrichment; the sequence in question is EQSGSYIWVLA [DLG1_Y895_P899L]
(A) 0.917

(Q) // fetch phosphorylation enrichment given entry NDDDVYLSLEE [VAV2_Y142_R143L]
(A) 0.984

(Q) // fetch phosphorylation enrichment given entry FFCRWYRNRKS [EREG_Y144_YF]
(A) 0.409

(Q) Return the recorded phosphorylation enrichment value; entry: CRAVKYLQMVG [AVPR2_Y117]
(A) 0.574

(Q) Tell me phosphorylation enrichment reported for YRAVKYLQMVG [AVPR2_Y117_C112Y]
(A) 0.653

(Q) Respond only with phosphorylation enrichment recorded for SYCYRYRCAPR [SUMF1_Y344_A348P]
(A) 0.716

(Q) Give recorded phosphorylation enrichment. YPSLPYSPVSS [CAMKK2_Y128_C123Y]
(A) 0.721

(Q) In one line, give reported phosphorylation enrichment of the entry AYRRGYFDEEM [PLEC_Y2971] .
(A) 0.5

(Q) Consider the sequence HLLRIYFDITD [MMP27_Y307_W304L_YF] and give its recorded phosphorylation enrichment.
(A) 1.68

(Q) State its phosphorylation enrichment for this sequence: RRIHSYRGHLW [VHL_Y112]
(A) 1.93

----------
System: SHP2-C SH2
Method description: SH2 binding enrichment of the phosphorylated peptide, bacterial display (enrichment ratio); higher = better substrate or ligand; peptides without Tyr show the background
I would appreciate it if you labelled entries y when SH2 binding enrichment is 0.7 or higher, otherwise n.

QMVGMYASSYM [AVPR2_Y124]: y
YKIYRYTLNDN [FN1_Y1975_L1974R]: y
RLLRGYRQDAY [HLA-A_Y137_F133L]: n
SGETEYNPTEA [NBEAL2_Y2748]: n
ANNQRYAFMPL [TMEM87B_Y460]: y
TSNQEYLFLSM [FGFR1_Y766_D768Y_YF]: n
NTGDYCDLYGG [PTPN11_Y63_Y63C]: y
QGLRLYRSHLA [BTK_Y617_P619S]: y
KLSCSYSHWSA [C4BPA_Y470]: y
HVLEEYKPKQG [SAXO2_Y37_P34L]: y

(Q) hey, is SH2 binding enrichment for this one >= 0.7? VRSNHYDPEED [TJP1_Y1346]
(A) y

(Q) Determine whether measured SH2 binding enrichment meets or exceeds 0.7 for RKVAQYMLENE [SLC16A6_Y224_E221V]
(A) n

(Q) Quick check: does KDGNGYISAAE [CALM1_Y100] have SH2 binding enrichment greater than or equal to 0.7?
(A) y

----------
// reported phosphorylation enrichment for each item listed
Tested on: AncSZ
Method description: phosphorylation enrichment, bacterial display (enrichment ratio); higher = better substrate or ligand; peptides without Tyr show the background
Answer with the value's number alone.

// solved cases for phosphorylation enrichment follow
PNAYIYVVQLP [L1CAM_Y420_A415P]: 1.53
NIRKKYFRAIL [CHD7_Y1217_Q1214R_YF]: 0.583
AYRRGYFDEEM [PLEC_Y2971]: 1.13
MPVDGYISGLL [PAK6_Y81]: 0.716

(Q) Output reported phosphorylation enrichment of the sequence YSGDYYRIQGR [DDR2_Y741] on AncSZ.
(A) 1.82

(Q) Fetch value of phosphorylation enrichment on AncSZ for GGEEFYVHFVG [KAT8_Y90_R86G_YF] .
(A) 1.34

----------
This listing pairs sequences with measured phosphorylation enrichment.
System: EPHB1 (UniProt P54762)
Sequence (P54762 whole entry, looked up): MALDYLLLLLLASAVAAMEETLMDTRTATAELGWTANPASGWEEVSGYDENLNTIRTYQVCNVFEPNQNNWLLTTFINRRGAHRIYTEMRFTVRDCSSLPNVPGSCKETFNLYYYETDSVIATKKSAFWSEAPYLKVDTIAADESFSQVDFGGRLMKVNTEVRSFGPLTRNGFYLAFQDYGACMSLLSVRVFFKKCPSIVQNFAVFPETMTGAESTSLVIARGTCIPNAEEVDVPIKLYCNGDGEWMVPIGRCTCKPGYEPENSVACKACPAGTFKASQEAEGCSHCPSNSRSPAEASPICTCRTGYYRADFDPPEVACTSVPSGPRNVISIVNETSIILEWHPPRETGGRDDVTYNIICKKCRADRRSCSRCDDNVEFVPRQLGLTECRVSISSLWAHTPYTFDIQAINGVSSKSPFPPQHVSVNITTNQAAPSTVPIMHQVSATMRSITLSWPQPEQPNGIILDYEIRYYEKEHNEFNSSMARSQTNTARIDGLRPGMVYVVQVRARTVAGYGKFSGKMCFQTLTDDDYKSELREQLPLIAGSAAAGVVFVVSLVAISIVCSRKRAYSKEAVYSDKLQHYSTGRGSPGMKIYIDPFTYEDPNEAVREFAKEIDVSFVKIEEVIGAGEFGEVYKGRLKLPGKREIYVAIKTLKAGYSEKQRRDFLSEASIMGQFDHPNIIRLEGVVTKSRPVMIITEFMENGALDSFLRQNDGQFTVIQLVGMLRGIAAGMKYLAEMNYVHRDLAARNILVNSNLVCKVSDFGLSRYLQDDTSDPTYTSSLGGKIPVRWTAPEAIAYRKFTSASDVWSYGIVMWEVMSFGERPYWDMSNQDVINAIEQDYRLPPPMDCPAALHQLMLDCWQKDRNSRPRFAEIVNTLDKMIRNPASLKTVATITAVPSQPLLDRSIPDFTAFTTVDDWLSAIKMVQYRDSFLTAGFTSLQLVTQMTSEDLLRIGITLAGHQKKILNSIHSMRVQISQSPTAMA
Method description: phosphorylation enrichment, bacterial display (enrichment ratio); higher = better substrate or ligand; peptides without Tyr show the background
No unit in the answer, please; the number alone is enough.

Reference set (3 entries):
HEEDNYIELIP [NWD2_Y566]: 2.98
GEAEQYVGGGG [FAT4_Y4980]: 0.394
MPLTKYLKRIK [CNGB3_Y200_E199K]: 0.425

(Q) Look up and state reported phosphorylation enrichment for LSSNLYFRWLT [CNGA3_Y168_P163L_YF]
(A) 0.783

(Q) Kindly indicate its recorded phosphorylation enrichment. Item: SLFNGYVYSGM [NEIL3_Y71_V76M]
(A) 0.653

(Q) Identify measured phosphorylation enrichment corresponding to ANNQRYAFMPL [TMEM87B_Y460]
(A) 0.655

(Q) Check the records and state phosphorylation enrichment for CQLENYCNGGG [INS_Y108_Y103C]
(A) 0.681

(Q) Using the record for CDKEFYSVHNK [MET_Y1235_Y1230C_YF] , state its measured phosphorylation enrichment.
(A) 0.461

(Q) # return recorded phosphorylation enrichment for entry PLQDVYKIGGI [EEF1A2_Y254]
(A) 2.02

(Q) Name the recorded phosphorylation enrichment of the item YSGDYYRIQGR [DDR2_Y741] in your answer.
(A) 5.47

(Q) Report measured phosphorylation enrichment; entry is LGSVVYAHSKE [KCNQ2_Y226]
(A) 0.473

(Q) Tell me its phosphorylation enrichment given RAHARYCADAC [ACOT4_Y52_R57C] as the entry.
(A) 0.402

----------
System: SHP2-C SH2;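 note: peptide library displayed on the E. coli surface as eCPX fusions, selected cells deep-sequenced, score is each peptide's frequency after selection divided by its frequency in the input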
Method description: SH2 binding enrichment of the phosphorylated peptide, bacterial display (enrichment ratio); higher = better substrate or ligand; peptides without Tyr show the background
Some sequences, each annotated with its measured SH2 binding enrichment.
Answer with a number only.

(Q) Output SH2 binding enrichment of YLGEEYVKAVG [TF_Y674]
(A) 0.788

(Q) Return reported SH2 binding enrichment. Input sequence: QNTGDDYDLYG [PTPN11_Y62_Y62D]
(A) 0.803

(Q) Give me measured SH2 binding enrichment, please, for this sequence: SVTSTYSPALN [TP53_Y126_C124S]
(A) 0.787

(Q) Give the value of SH2 binding enrichment reported for the following: YDRREYSRFEK [ITGB7_Y758]
(A) 0.813

(Q) Item DNEALYDICFC [TUBB3_Y208_R213C] : provide SH2 binding enrichment
(A) 0.8

(Q) Provide one value: measured SH2 binding enrichment of IINENYDYLKG [NUP98_Y1664]
(A) 0.812

----------
Tested on: c-Abl (mouse)
Method description: phosphorylation enrichment, bacterial display (enrichment ratio); higher = better substrate or ligand; peptides without Tyr show the background
Parameter phosphorylation enrichment: see the listing below.
// return just the number, without any unit appended

PAVGIYNDNIN [CDCP1_Y707]: 0.71
SSNPEYLSASD [INSR_Y999]: 0.719

(Q) Specify measured phosphorylation enrichment for FRPHLYGTPSR [ADGRE2_Y670_S665F] .
(A) 0.718

----------
System: Fyn (UniProt P06241)
Sequence (P06241 whole entry, looked up): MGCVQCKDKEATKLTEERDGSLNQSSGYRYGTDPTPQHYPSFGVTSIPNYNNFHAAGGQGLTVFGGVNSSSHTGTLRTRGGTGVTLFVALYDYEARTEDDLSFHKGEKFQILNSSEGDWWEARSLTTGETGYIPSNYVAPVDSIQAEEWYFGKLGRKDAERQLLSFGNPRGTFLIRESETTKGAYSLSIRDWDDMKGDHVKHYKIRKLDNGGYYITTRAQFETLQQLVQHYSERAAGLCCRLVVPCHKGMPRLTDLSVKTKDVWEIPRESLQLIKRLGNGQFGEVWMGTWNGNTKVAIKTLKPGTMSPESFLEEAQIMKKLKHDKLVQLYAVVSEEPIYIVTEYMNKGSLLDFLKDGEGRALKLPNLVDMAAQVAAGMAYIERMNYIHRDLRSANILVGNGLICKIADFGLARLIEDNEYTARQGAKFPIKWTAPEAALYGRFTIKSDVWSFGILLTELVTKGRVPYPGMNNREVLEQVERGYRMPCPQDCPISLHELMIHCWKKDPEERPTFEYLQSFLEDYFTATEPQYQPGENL
Method description: phosphorylation enrichment, bacterial display (enrichment ratio); higher = better substrate or ligand; peptides without Tyr show the background
Measurement label: phosphorylation enrichment
Give the figure only, with no unit attached.

Example sequences with recorded phosphorylation enrichment:
EESREYDRLFE [PIK3R1_Y463_K459E_YF]: 0.493
DKGTLYIVEQI [PLBD1_Y375]: 0.492
GGMTEYNLVVV [KRAS_Y4_K5N]: 0.486

Okay, next one:
(Q) Could you please provide reported phosphorylation enrichment for SVVVPYEPPEL [TP53_Y220_V225L] ? Thanks!
(A) 0.494

----------
Test system: c-Src
Method description: phosphorylation enrichment, bacterial display (enrichment ratio); higher = better substrate or ligand; peptides without Tyr show the background
Parameter: phosphorylation enrichment. Scope: all listed entries.
Respond numerically, and do not add a unit to the figure.

AEMTGYVMTRW [MAPK13_Y182_V184M]: 0.397
RKVAQYMLENE [SLC16A6_Y224_E221V]: 0.389
MPLTKYLKRIK [CNGB3_Y200_E199K]: 0.391

(Q) Please give measured phosphorylation enrichment of the following entry: VIEQRYNETWL [SLC2A4_Y56_S55R]
(A) 0.402

----------
System: c-Src
Method description: phosphorylation enrichment, bacterial display (enrichment ratio); higher = better substrate or ligand; peptides without Tyr show the background
Okay, here is how we bin by phosphorylation enrichment: LOW (below 0.4), MEDIUM (0.4 to below 0.9), HIGH (0.9 or more)

LFQAKYQIRFR [CRLF1_Y272_YF]: HIGH
AGADGYGFLAP [FOXL2_Y186_YF]: MEDIUM
DKANRYFSPNF [PTEN_Y336]: LOW
CEETFYTMKMN [MASP2_Y401_V405M]: HIGH

(Q) Pick a category. Item: VFSATYHPDHW [EFCAB12_Y544_P541S_YF]
(A) MEDIUM

(Q) Could you tell me which band LKVQVYILGRE [ASS1_Y359_G356V] belongs to?
(A) HIGH

(Q) Each sequence maps to one class by phosphorylation enrichment. Which class for GANFEYIIAEK [ECHS1_Y35] ?
(A) MEDIUM

(Q) Hi there! Could you help me figure out the category for GDFFRSLAEVA [YWHAG_Y133_Y133S_YF] please?
(A) MEDIUM

(Q) Tag the class for EFLKNYFTDKA [DSG2_Y775_R773K]
(A) MEDIUM

(Q) Hey, which category is IAAEYYDNLPH [DEGS1_Y284] in, do you know?
(A) MEDIUM

(Q) Consider LSSNLYFRWLT [CNGA3_Y168_P163L_YF] . To which phosphorylation enrichment class does it belong?
(A) HIGH
